- System: DU145
- METHOD_NOTES: Euclidean distance of Cell Painting phenotypic profile (signed KS, 77 features) to DMSO centroid (dimensionless distance); 5 or 10 uM (library dependent); higher = stronger phenotypic change vs DMSO (phenoactivity)
- CONDITION_CONTEXT: 48 h
Consider the following compounds; for each one, report its Euclidean distance.

Solved entries:
compound="CCCN1CCCC[C@H]1C(=O)Nc1c(C)cccc1C [Ropivacaine Mesilate]" result=1.14
compound=CN(C)c1ccc(-c2nc3ncc(Cl)c(N4CCN(CC(=O)Nc5nccs5)CC4)c3[nH]2)cc1 result=1.32

Quick request: Euclidean distance for each listed item, please.
1. COc1cc2c(cc1OC)CN(CCc1ccc(NC(=O)c3cc(OC)c(OC)cc3NC(=O)c3cnc4ccccc4c3)cc1)CC2 [Tariquidar]
2. COc1ccc2cc([C@H](C)C(=O)O)ccc2c1 [Naproxen]
3. CCC(C)n1ncn(-c2ccc(N3CCN(c4ccc(OCC5COC(Cn6cncn6)(c6ccc(Cl)cc6Cl)O5)cc4)CC3)cc2)c1=O (configuration not stated) [Itraconazole]
4. C=CC(=O)Nc1cc(Nc2nccc(-c3cn(C)c4ccccc34)n2)c(OC)cc1N(C)CCN(C)C [Osimertinib (AZD9291)]
5. NCCS(=O)(=O)O [Taurine]
6. CO[C@H]1C[C@@H]2CC[C@@H](C)[C@@](O)(O2)C(=O)C(=O)N2CCCC[C@H]2C(=O)O[C@H]([C@H](C)C[C@@H]2CC[C@@H](OCCO)[C@H](OC)C2)CC(=O)[C@H](C)/C=C(\C)[C@@H](O)[C@@H](OC)C(=O)[C@H](C)C[C@H](C)/C=C/C=C/C=C/1C [Everolimus (RAD001)]
7. CC[C@H]1OC(=O)[C@H](C)[C@@H](O[C@H]2C[C@@](C)(OC)[C@@H](O)[C@H](C)O2)[C@H](C)[C@@H](O[C@@H]2O[C@H](C)C[C@H](N(C)C)[C@H]2O)[C@](C)(O)C[C@@H](C)/C(=N\OCOCCOC)[C@H](C)[C@@H](O)[C@]1(C)O [Roxithromycin]

1. 1
2. 1.05
3. 1.52
4. 4.29
5. 1.34
6. 2.74
7. 0.699

---

- System: FB
- METHOD_NOTES: Euclidean distance of Cell Painting phenotypic profile (signed KS, 77 features) to DMSO centroid (dimensionless distance); 5 or 10 uM (library dependent); higher = stronger phenotypic change vs DMSO (phenoactivity)
- CONDITION_CONTEXT: 48 h
QUANTITY: Euclidean distance
Answers are plain numbers.

compound=O=C(NCCN1CCOCC1)c1ccc(Cl)cc1 target_entity=FB quantity="Euclidean distance" result=0.812

Quick request: Euclidean distance for each listed item, please.
1. CC(=O)Oc1cc(C(F)(F)F)ccc1C(=O)O
2. COC(=O)C1=C(C)NC(C)=C(C(=O)OCCN2CCN(C(c3ccccc3)c3ccccc3)CC2)C1c1cccc([N+](=O)[O-])c1 (stereo not drawn) [Manidipine 2HCl]

1. 0.956
2. 1.11

---

- System: FB
- METHOD_NOTES: Euclidean distance of Cell Painting phenotypic profile (signed KS, 77 features) to DMSO centroid (dimensionless distance); 5 or 10 uM (library dependent); higher = stronger phenotypic change vs DMSO (phenoactivity)
- CONDITION_CONTEXT: 48 h
Structures can show the parent of a compound that is named as a salt.
Consider the following compounds; for each one, report its Euclidean distance.
Answers are plain numbers.

Solved entries:
compound="COc1ccc(/C=C/C(=O)Nc2ccccc2C(=O)O)cc1OC [Trans-Tranilast]" target_entity=FB result=1.18
compound=OCCN1CCN(CCCN2c3ccccc3Sc3ccc(Cl)cc32)CC1 target_entity=FB result=2.8
compound="CCC(=O)Oc1ccc2c(c1)CCC1C2CCC2(C)C(OC(=O)CC)CCC12 (stereo not drawn) [17-Beta-Estradiol-3.17-Dipropionate]" target_entity=FB result=1.21
compound="COc1ccc2cc([C@H](C)C(=O)O)ccc2c1 [Naproxen]" target_entity=FB result=0.816

Quick request: Euclidean distance for each listed item, please.
1. CCCCCOc1ccccc1/C(=C\SC)n1ccnc1 [Neticonazole Hydrochloride]
2. CC[C@@H]1C(=O)N(C)c2cnc(Nc3ccc(C(=O)N[C@H]4CC[C@H](N5CCN(CC6CC6)CC5)CC4)cc3OC)nc2N1C(C)C
3. COCCOc1ccc2c(c1)ncn2-c1ccc2cccc(N3CCC(N)CC3)c2n1

1: 0.825; 2: 5.55; 3: 3.61

Quick request: Euclidean distance for each listed item, please.
1. Cc1ccc(S(=O)(=O)OCC(=O)Nc2ccc(C(=O)O)c(O)c2)cc1
2. Nc1ncc2ncn(CC3(OCP(=O)(O)O)CC3)c2n1
3. NCCc1c[nH]cn1 [Histamine 2HCl]

[0.948, 1.2, 1.22]

Quick request: Euclidean distance for each listed item, please.
1. Fc1ccc([C@@H]2CCNC[C@H]2COc2ccc3c(c2)OCO3)cc1 [Paroxetine mesylate]
2. O=C(NCCS(=O)(=O)c1ccc(C(F)(F)F)cn1)c1ccc(Cl)cc1
3. CCOC(=O)N[C@@H]1CC[C@@H]2[C@@H](C1)C[C@H]1C(=O)O[C@H](C)[C@H]1[C@H]2/C=C/c1ccc(-c2cccc(F)c2)cn1
4. CN(C)CCC=C1c2ccccc2C=Cc2ccccc21 [Cyclobenzaprine HCl]
5. CCCCCN(C)CCC(O)(P(=O)(O)O)P(=O)(O)O [Ibandronate sodium]
6. CN1CCCC(n2nc(Cc3ccc(Cl)cc3)c3ccccc3c2=O)CC1 (stereo unspecified) [Azelastine HCl]
7. CCOCCn1c(N2CCCN(C)CC2)nc2ccccc21

1. 1.62
2. 0.817
3. 2.37
4. 1.88
5. 1.59
6. 2.15
7. 0.988

---

- Test system: HEPG2
- METHOD_NOTES: Euclidean distance of Cell Painting phenotypic profile (signed KS, 77 features) to DMSO centroid (dimensionless distance); 5 or 10 uM (library dependent); higher = stronger phenotypic change vs DMSO (phenoactivity)
- CONDITION_CONTEXT: 48 h
Where a name gives a salt, the structure may show the parent alone.
Parameter threshold = 1. Response is Satisfied when Euclidean distance meets or exceeds it, else Not satisfied.

Observe how each entry below is paired with its result.
compound="CN(C)CCCN1c2ccccc2Sc2ccc(C(F)(F)F)cc21 [Triflupromazine hydrochloride]" target_entity=HEPG2 assigned_category=Satisfied
compound="CC[C@@]1(O)C(=O)OCc2c1cc1n(c2=O)Cc2cc3cc(O)ccc3nc2-1 [Hydroxy Camptothecine]" target_entity=HEPG2 assigned_category=Satisfied
compound=C=CC(=O)N1CC[C@H](n2nc(C#Cc3cc(OC)cc(OC)c3)c3c(N)ncnc32)C1 target_entity=HEPG2 assigned_category=Satisfied
compound="C[C@H]1COC2(CCN(c3nc(=O)c4cc(C(F)(F)F)cc([N+](=O)[O-])c4s3)CC2)O1 (racemic) [BTZ043 Racemate]" target_entity=HEPG2 assigned_category="Not satisfied"
compound=O=C1CN(/N=C/c2ccc([N+](=O)[O-])o2)C(=O)N1 target_entity=HEPG2 assigned_category="Not satisfied"

Threshold query (Euclidean distance >= 1) on "O=C(Nc1ccc(OC(F)(F)Cl)cc1)c1cnc(N2CC[C@@H](O)C2)c(-c2cc[nH]n2)c1"
Satisfied

Threshold query (Euclidean distance >= 1) on "Cc1ccc(-c2nc(N)nc3c2nnn3Cc2cccc(CO[C@H]3CCOC3)n2)o1"
Not satisfied

---

- Test system: DU145
- METHOD_NOTES: Euclidean distance of Cell Painting phenotypic profile (signed KS, 77 features) to DMSO centroid (dimensionless distance); 5 or 10 uM (library dependent); higher = stronger phenotypic change vs DMSO (phenoactivity)
- CONDITION_CONTEXT: 48 h
Parameter threshold = 1. Response is T when Euclidean distance meets or exceeds it, else F.

Observe how each entry below is paired with its result.
molecule=COCCNCc1ccc(-c2cc3nccc(Oc4ccc(NC(=O)C5(C(=O)Nc6ccc(F)cc6)CC5)cc4F)c3s2)nc1 target_entity=DU145 assigned_category=T
molecule="CCC(c1ccccc1)c1c(O)c2ccccc2oc1=O (centres undefined)" target_entity=DU145 assigned_category=F
molecule=Cn1cc(CNCC2CCN(c3ncc(C(=O)NO)cn3)CC2)c2ccccc21 target_entity=DU145 assigned_category=T
molecule=c1ccc(-c2nn3c(c2-c2ccnc4cc(OCCN5CCOCC5)ccc24)CCC3)nc1 target_entity=DU145 assigned_category=T
molecule=Nc1nccc(Oc2ccc(NC(=O)c3c[nH]cc(-c4ccc(F)cc4)c3=O)cc2F)c1Cl target_entity=DU145 assigned_category=T

Threshold query (Euclidean distance >= 1) on Nc1nc(F)nc2c1ncn2[C@@H]1O[C@H](COP(=O)(O)O)[C@@H](O)[C@@H]1O [Fludarabine Phosphate]
T

Threshold query (Euclidean distance >= 1) on "O=C(c1cncc(Br)c1)N1CCC(N2CCCC2)CC1"
F

Threshold query (Euclidean distance >= 1) on "CN(C)c1nc(N(C)C)nc(N(C)C)n1"
F

Sourced from the supplement of paper PMC10127200
